Assay system: T1, human transferrin receptor (recombinant, for surface plasmon resonance) (human, UniProt P02786 89-760)
T1 construct: also called huTfR; human transferrin receptor-biotinylated
T1 sequence (P02786 89-760 limits assumed): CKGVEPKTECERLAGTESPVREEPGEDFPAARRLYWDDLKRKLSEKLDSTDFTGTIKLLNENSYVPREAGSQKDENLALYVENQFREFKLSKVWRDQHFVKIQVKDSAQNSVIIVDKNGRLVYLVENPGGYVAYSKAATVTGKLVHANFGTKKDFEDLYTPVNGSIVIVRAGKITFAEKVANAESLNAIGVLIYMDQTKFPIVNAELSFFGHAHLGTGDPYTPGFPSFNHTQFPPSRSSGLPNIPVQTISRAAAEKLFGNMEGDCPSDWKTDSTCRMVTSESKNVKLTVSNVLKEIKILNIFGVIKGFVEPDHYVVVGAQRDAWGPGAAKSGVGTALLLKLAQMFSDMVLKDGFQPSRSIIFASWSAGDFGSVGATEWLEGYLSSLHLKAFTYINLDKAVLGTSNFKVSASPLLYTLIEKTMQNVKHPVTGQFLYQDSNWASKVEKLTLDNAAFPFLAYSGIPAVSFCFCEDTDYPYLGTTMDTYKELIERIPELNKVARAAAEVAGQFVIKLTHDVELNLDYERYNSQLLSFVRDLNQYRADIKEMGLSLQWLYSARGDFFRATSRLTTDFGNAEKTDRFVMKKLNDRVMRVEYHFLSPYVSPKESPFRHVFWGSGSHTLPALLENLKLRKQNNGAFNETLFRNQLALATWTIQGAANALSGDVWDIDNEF
Test method notes: SPR 25C
Kindly supply the reported koff values for the records listed here.
Give the number; s⁻¹ is assumed, so skip it.

## Task State, in one line, measured koff of 2/99 VH15/VL1 (antibody, V domains shown) VH: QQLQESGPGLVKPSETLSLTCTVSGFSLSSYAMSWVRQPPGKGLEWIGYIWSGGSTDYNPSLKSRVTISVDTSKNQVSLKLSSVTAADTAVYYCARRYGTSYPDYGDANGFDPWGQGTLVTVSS VL: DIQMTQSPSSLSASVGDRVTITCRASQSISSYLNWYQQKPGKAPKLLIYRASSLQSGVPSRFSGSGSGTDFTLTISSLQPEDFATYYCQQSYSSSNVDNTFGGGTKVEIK
## Result 0.00772

## Task State, in one line, measured koff of 2/99 VH2/VL5 (antibody, V domains shown) VH: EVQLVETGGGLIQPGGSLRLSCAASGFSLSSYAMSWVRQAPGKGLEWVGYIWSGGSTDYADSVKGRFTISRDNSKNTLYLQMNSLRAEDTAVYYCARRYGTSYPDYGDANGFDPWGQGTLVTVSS VL: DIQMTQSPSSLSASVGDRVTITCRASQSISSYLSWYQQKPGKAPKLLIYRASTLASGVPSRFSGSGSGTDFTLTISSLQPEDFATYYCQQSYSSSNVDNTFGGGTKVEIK
## Result 0.00262

## Task State, in one line, measured koff of 2/99 VH15/VL3 (antibody, V domains shown) VH: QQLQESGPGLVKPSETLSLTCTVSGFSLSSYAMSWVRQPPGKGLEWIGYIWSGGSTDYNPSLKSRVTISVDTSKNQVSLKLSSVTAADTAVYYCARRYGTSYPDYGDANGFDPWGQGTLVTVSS VL: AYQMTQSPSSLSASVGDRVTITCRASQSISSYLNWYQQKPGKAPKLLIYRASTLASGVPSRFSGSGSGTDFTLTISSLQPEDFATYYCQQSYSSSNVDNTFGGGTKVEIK
## Result 0.00207

## Task State, in one line, measured koff of 2/99 VH20/VL2 (antibody, V domains shown) VH: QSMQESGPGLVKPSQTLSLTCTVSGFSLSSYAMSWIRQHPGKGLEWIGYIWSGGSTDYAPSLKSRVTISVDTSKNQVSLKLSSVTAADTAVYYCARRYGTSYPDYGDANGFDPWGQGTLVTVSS VL: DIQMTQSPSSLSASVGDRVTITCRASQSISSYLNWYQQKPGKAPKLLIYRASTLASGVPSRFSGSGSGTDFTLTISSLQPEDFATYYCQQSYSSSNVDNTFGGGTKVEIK
## Result 0.00525

## Task State, in one line, measured koff of 2/99 VH5/VL5 (antibody, V domains shown) VH: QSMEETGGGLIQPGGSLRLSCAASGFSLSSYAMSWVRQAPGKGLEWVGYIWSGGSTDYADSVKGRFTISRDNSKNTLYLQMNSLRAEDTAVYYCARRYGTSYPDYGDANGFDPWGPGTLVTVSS VL: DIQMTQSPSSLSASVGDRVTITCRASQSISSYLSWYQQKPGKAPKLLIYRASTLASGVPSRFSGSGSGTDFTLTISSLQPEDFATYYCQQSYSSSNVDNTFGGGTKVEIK
## Result 0.00253
